- measurementNotes: Modulation of GP6 in human platelets reduction in collagen-induced platelet aggregation preincubated for 20 mins followed by collagen stimulation
propertyMeasured: IC50 (nM)

* Cc1cccc(Nc2nc(N[C@@H]3CCCC[C@@H]3N)ncc2C(N)=O)c1 | 570

----------
- studyTarget: Platelet glycoprotein VI (Homo sapiens)
- Sequence (Q9HCN6 whole entry): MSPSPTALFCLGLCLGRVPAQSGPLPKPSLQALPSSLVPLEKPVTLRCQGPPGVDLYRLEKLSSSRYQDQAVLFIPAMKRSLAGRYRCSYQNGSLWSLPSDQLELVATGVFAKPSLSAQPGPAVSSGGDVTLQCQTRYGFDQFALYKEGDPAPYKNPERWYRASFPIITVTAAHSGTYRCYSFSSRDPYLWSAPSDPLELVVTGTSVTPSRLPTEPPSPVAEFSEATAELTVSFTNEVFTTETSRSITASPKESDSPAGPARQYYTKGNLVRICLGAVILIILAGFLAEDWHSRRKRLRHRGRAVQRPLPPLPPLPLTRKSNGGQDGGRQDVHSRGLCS
- measurementNotes: Inhibition of GP6 in human whole blood assessed as protein-mediated platelet aggregation preincubated for 15 mins followed by collagen stimulation and measured for 10 mins by multiple electrode aggregometry
propertyMeasured: IC50 (nM)

- C/C=C/C(=O)N1CCC[C@H]1c1nc(-c2ccc(C(=O)Nc3ccccn3)cc2)c2c(N)nccn12 [ACP-196]: 1210

----------
pIC50: recorded values
- measurementNotes: Inhibition of GP6 in human whole blood assessed as protein-mediated platelet aggregation preincubated for 15 mins followed by collagen stimulation and measured for 10 mins by multiple electrode aggregometry
pIC50: −log10 of the molar value.
propertyMeasured: pIC50

• C=CC(=O)N1CCC[C@@H](n2nc(-c3ccc(Oc4ccccc4)cc3)c3c(N)ncnc32)C1 [IBRUTINIB] = 6.92
• C=CC(=O)N1CCC(CNc2ncnc(N)c2-c2ccc(Oc3ccccc3)cc2)CC1 [US9580449, Example A39] = 5.23
• CC#CC(=O)N1CC[C@@H](n2c(=O)n(-c3ccc(Oc4ccccc4)cc3)c3c(N)ncnc32)C1 [US9199997, 9] = 5.92
• C=CC(=O)N1CCC([C@@H]2CCNc3c(C(N)=O)c(-c4ccc(Oc5ccccc5)cc4)nn32)CC1 (single isomer, unassigned) [US9447106, 27b (peak 2)] = 6.29
